- Test system: MCF7
- MEASUREMENT DESCRIPTION: Induction of apoptosis in human MCF7 cells assessed as increase in apoptosis/necrosis cells at IC50 incubated for 24 hrs by Annexin V-FITC/ethidium homodimer 3 staining based fluorescence microscopic method relative to control
- Type: functional
Field: Activity. Provide a value for each of the compounds that follow.
Express the reported value numerically, then name its unit.

Please give the measured Activity for this compound: Fc1ccc(-c2csc(N3N=C(c4ccc(N5CCOCC5)cc4)CC3c3ccc(Cl)cc3)n2)cc1 (centres undefined)
14%

Please give the measured Activity for this compound: N#Cc1ccc(-c2csc(N3N=C(c4ccc(N5CCOCC5)cc4)CC3c3ccc(Cl)cc3)n2)cc1 (centres undefined)
32%

Please give the measured Activity for this compound: N#Cc1ccc(-c2csc(N3N=C(c4ccc(N5CCCCC5)cc4)CC3c3ccc(Cl)cc3)n2)cc1 (centres undefined)
27%

Please give the measured Activity for this compound: C#Cc1cccc(Nc2ncnc3cc(OCCOC)c(OCCOC)cc23)c1
21%

====

Field: pIC50. Provide a value for each of the compounds that follow.
- TESTED ON: Receptor tyrosine-protein kinase erbB-2 (Homo sapiens)
- Sequence (P04626 whole entry): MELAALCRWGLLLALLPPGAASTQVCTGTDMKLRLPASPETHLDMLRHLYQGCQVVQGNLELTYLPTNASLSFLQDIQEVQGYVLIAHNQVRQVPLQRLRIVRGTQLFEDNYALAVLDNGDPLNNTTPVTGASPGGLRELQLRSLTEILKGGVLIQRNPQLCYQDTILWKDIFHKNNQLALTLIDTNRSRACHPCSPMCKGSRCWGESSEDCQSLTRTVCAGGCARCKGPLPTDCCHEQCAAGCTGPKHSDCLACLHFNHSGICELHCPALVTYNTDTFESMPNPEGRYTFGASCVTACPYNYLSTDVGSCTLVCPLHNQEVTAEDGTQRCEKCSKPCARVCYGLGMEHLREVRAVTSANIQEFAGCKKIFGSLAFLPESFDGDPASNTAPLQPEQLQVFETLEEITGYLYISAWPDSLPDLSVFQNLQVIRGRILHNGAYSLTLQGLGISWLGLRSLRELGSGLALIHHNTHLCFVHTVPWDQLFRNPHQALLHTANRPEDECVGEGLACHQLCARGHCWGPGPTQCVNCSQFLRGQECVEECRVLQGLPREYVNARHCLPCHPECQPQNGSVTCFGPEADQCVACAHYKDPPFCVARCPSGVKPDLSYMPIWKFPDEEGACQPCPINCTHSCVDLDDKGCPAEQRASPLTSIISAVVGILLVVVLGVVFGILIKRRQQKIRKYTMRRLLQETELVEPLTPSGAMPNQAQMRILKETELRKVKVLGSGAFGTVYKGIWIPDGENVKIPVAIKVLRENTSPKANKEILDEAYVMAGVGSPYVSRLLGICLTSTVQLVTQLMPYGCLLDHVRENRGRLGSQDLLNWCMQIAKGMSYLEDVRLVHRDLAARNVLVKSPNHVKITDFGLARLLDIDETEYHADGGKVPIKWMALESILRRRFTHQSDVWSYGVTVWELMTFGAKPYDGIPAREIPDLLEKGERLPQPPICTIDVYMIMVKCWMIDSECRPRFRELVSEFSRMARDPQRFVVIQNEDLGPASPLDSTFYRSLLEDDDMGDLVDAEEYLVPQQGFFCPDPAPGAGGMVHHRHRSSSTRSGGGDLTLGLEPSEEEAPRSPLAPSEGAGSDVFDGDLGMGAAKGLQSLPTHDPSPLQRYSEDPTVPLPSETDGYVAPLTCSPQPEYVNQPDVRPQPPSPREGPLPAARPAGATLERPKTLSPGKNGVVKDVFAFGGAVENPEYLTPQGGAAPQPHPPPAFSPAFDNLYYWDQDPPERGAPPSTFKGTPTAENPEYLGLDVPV
- MEASUREMENT DESCRIPTION: Inhibition of recombinant human N-terminal GST-tagged HER2 (676 to end residues) expressed in baculovirus infected Sf9 insect cells using Poly (4:1 Glu, Tyr) peptide as substrate incubated for 1 hr by ADP-Glo assay
Would you please state pIC50, meaning minus log10 of the concentration in mol/L, as a bare number?

Please give the measured pIC50 for this compound: Fc1ccc(-c2csc(N3N=C(c4ccc(N5CCOCC5)cc4)CC3c3ccc(Cl)cc3)n2)cc1 (stereo not drawn)
5.16

Please give the measured pIC50 for this compound: N#Cc1ccc(-c2csc(N3N=C(c4ccc(N5CCOCC5)cc4)CC3c3ccc(Cl)cc3)n2)cc1 (stereo not drawn)
5.64

====

- TESTED ON: Vascular endothelial growth factor receptor 2 (Homo sapiens)
- Sequence (P35968 whole entry): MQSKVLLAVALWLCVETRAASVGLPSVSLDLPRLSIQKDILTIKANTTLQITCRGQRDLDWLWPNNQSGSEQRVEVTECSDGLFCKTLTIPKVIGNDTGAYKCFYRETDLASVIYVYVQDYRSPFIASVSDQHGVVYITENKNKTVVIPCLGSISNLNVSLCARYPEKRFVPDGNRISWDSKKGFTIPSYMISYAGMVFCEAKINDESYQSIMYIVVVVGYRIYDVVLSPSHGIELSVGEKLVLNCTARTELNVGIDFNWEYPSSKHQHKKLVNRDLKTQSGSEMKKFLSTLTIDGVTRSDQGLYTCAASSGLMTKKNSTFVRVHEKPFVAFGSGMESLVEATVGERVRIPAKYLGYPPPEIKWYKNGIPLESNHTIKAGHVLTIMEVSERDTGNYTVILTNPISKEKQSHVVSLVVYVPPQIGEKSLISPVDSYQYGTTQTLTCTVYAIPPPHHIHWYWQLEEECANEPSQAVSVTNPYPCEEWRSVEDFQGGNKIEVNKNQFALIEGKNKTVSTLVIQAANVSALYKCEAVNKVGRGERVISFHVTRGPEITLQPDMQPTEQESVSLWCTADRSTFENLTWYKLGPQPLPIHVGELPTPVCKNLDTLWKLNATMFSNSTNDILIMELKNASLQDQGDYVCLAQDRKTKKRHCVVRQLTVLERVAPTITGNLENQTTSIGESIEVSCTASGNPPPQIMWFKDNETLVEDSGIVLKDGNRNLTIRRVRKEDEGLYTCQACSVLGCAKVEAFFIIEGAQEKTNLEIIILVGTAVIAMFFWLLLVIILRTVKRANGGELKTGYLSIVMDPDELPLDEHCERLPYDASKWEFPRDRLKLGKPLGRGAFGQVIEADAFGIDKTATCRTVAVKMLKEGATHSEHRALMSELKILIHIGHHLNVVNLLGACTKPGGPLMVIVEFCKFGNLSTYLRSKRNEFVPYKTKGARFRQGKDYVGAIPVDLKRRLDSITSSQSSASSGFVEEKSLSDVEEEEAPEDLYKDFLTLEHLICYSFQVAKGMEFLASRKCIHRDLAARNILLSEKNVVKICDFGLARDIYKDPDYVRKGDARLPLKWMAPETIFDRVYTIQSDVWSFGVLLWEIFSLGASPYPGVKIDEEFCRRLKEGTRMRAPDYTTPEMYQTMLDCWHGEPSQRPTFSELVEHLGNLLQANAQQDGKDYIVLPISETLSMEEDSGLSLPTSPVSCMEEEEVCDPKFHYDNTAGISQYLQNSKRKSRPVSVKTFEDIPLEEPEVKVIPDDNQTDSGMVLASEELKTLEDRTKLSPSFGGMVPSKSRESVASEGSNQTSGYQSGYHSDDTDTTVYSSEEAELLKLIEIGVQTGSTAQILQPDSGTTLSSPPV
- MEASUREMENT DESCRIPTION: Inhibition of recombinant human N-terminal GST-tagged KDR (789 to end residues) expressed in baculovirus infected Sf9 insect cells using Poly (4:1 Glu, Tyr) peptide as substrate incubated for 1 hr by ADP-Glo assay
PROPERTY LABEL: IC50 (µM)
Just the number in µM, nothing appended.

Please give the measured IC50 for this compound: N#Cc1ccc(-c2csc(N3N=C(c4ccc(N5CCCCC5)cc4)CC3c3ccc(Cl)cc3)n2)cc1 (stereo not drawn)
25.6

Please give the measured IC50 for this compound: Fc1ccc(-c2csc(N3N=C(c4ccc(N5CCOCC5)cc4)CC3c3ccc(Cl)cc3)n2)cc1 (stereo not drawn)
10.5

Please give the measured IC50 for this compound: N#Cc1ccc(-c2csc(N3N=C(c4ccc(N5CCOCC5)cc4)CC3c3ccc(Cl)cc3)n2)cc1 (stereo not drawn)
10.8

====

- TESTED ON: Platelet-derived growth factor receptor beta (Homo sapiens, UniProt P09619)
- MEASUREMENT DESCRIPTION: Inhibition of recombinant human N-terminal GST-tagged PDGFRbeta (557 to end residues) expressed in baculovirus infected Sf9 insect cells using Poly (4:1 Glu, Tyr) peptide as substrate incubated for 1 hr by ADP-Glo assay
pIC50: −log10 of the molar value.
PROPERTY LABEL: pIC50

Please give the measured pIC50 for this molecule: Fc1ccc(-c2csc(N3N=C(c4ccc(N5CCOCC5)cc4)CC3c3ccc(Cl)cc3)n2)cc1 (stereo not drawn)
< 4.52

Please give the measured pIC50 for this molecule: N#Cc1ccc(-c2csc(N3N=C(c4ccc(N5CCCCC5)cc4)CC3c3ccc(Cl)cc3)n2)cc1 (stereo not drawn)
< 4.52

Please give the measured pIC50 for this molecule: N#Cc1ccc(-c2csc(N3N=C(c4ccc(N5CCOCC5)cc4)CC3c3ccc(Cl)cc3)n2)cc1 (stereo not drawn)
< 4.52

====

- TESTED ON: Epidermal growth factor receptor (Homo sapiens, UniProt P00533)
- MEASUREMENT DESCRIPTION: Inhibition of recombinant human N-terminal GST-tagged EGFR (695 to end residues) expressed in baculovirus infected Sf9 insect cells using Poly (4:1 Glu, Tyr) peptide as substrate incubated for 1 hr by ADP-Glo assay
PROPERTY LABEL: IC50 (µM)
Just the number in µM, nothing appended.

Please give the measured IC50 for this compound: N#Cc1ccc(-c2csc(N3N=C(c4ccc(N5CCCCC5)cc4)CC3c3ccc(Cl)cc3)n2)cc1 (configuration not stated)
4.71

Please give the measured IC50 for this compound: Fc1ccc(-c2csc(N3N=C(c4ccc(N5CCOCC5)cc4)CC3c3ccc(Cl)cc3)n2)cc1 (configuration not stated)
23.3

====

- TESTED ON: Platelet-derived growth factor receptor alpha (Homo sapiens, UniProt P16234)
- Sequence (P16234 whole entry): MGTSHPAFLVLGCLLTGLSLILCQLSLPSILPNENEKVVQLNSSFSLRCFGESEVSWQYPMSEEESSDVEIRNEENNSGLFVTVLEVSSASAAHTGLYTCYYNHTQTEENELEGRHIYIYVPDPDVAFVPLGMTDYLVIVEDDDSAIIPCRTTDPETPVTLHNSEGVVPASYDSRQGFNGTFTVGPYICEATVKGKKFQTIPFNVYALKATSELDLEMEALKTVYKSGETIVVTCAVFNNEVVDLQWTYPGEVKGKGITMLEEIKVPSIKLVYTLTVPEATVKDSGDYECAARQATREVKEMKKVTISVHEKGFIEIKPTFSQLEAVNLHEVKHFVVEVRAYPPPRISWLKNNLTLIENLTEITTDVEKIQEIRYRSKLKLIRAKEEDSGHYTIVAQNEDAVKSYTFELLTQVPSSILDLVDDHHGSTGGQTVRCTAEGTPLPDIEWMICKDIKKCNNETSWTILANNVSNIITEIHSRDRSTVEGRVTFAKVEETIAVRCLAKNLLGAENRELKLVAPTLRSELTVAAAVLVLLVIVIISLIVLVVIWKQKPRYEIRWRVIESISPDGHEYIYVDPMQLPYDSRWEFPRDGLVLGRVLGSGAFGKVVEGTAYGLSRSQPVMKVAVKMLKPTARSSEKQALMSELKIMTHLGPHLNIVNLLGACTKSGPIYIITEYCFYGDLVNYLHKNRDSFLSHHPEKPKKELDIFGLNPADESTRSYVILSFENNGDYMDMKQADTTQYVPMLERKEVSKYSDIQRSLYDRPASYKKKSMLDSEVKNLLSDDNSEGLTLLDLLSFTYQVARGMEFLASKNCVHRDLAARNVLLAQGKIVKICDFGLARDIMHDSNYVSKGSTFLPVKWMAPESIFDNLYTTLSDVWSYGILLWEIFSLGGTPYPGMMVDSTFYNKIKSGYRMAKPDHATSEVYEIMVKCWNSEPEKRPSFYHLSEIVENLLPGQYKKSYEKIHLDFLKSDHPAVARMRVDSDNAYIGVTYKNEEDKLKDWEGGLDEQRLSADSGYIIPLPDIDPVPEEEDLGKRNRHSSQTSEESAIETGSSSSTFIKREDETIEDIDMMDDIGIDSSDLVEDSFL
- MEASUREMENT DESCRIPTION: Inhibition of recombinant human N-terminal GST-tagged PDGFRalpha (550 to end residues) expressed in baculovirus infected Sf9 insect cells using Poly (4:1 Glu, Tyr) peptide as substrate incubated for 1 hr by ADP-Glo assay
PROPERTY LABEL: IC50

Please give the measured IC50 for this compound: Fc1ccc(-c2csc(N3N=C(c4ccc(N5CCOCC5)cc4)CC3c3ccc(Cl)cc3)n2)cc1 (stereo not drawn)
> 30 µM

Please give the measured IC50 for this compound: N#Cc1ccc(-c2csc(N3N=C(c4ccc(N5CCCCC5)cc4)CC3c3ccc(Cl)cc3)n2)cc1 (stereo not drawn)
> 30 µM

Please give the measured IC50 for this compound: N#Cc1ccc(-c2csc(N3N=C(c4ccc(N5CCOCC5)cc4)CC3c3ccc(Cl)cc3)n2)cc1 (stereo not drawn)
> 30 µM

====

- System: PBMC
- MEASUREMENT DESCRIPTION: Cytotoxicity against human PBMC cells assessed as reduction in cell viability incubated for 72 hrs by MTT assay
- Format: cell-based
PROPERTY LABEL: IC50 (µM)
Just the number in µM, nothing appended.

Please give the measured IC50 for this molecule: C#Cc1cccc(Nc2ncnc3cc(OCCOC)c(OCCOC)cc23)c1 [ERLOTINIB]
39.3

Please give the measured IC50 for this molecule: N#Cc1ccc(-c2csc(N3N=C(c4ccc(N5CCCCC5)cc4)CC3c3ccc(Cl)cc3)n2)cc1 (centres undefined)
299

Please give the measured IC50 for this molecule: N#Cc1ccc(-c2csc(N3N=C(c4ccc(N5CCOCC5)cc4)CC3c3ccc(Cl)cc3)n2)cc1 (centres undefined)
299

====

- TESTED ON: Insulin receptor (Homo sapiens)
- Sequence (P06213 28-758 limits assumed): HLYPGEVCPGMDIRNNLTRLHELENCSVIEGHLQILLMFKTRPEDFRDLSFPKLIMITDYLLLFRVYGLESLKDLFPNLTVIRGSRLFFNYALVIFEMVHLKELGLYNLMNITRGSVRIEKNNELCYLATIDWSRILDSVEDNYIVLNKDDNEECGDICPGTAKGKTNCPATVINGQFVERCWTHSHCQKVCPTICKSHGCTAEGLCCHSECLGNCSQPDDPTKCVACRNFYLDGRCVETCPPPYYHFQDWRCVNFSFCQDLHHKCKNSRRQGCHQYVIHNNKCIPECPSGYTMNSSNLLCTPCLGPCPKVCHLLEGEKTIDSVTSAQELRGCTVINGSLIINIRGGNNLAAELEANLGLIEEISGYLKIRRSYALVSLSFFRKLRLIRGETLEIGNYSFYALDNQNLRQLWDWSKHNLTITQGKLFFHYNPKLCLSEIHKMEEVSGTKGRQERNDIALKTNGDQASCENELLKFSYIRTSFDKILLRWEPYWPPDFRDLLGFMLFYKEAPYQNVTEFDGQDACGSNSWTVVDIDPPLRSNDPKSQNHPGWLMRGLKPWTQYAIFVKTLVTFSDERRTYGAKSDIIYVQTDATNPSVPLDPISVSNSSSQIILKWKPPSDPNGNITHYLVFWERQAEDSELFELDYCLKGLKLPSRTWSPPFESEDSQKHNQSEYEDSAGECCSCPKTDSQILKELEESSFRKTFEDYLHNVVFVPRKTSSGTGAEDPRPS
- Sequence (P06213 763-1382 limits assumed): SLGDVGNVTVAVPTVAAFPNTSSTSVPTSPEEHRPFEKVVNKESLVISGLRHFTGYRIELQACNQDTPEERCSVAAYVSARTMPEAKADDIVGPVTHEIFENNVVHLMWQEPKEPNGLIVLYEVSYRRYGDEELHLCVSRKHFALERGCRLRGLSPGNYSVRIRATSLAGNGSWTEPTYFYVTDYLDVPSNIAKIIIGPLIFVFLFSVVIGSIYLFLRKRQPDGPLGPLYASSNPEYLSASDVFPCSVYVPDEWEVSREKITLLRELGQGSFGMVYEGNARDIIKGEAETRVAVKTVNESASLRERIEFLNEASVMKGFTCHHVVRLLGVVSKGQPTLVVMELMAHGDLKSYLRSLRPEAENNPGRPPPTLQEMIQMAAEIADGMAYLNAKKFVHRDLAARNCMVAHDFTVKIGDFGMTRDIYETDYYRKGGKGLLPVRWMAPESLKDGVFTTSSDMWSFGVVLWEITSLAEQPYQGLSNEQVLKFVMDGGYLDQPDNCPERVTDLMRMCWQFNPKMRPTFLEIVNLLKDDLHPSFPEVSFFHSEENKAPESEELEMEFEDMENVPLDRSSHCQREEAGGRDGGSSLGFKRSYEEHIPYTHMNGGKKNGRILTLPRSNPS
- MEASUREMENT DESCRIPTION: Inhibition of recombinant human N-terminal GST-tagged INSR (1011 to end residues) expressed in baculovirus infected Sf9 insect cells using Axltide as substrate incubated for 1 hr by ADP-Glo assay
pIC50: −log10 of the molar value.
PROPERTY LABEL: pIC50

GET /values?readout=pIC50&system=Insulin receptor (Homo sapiens)&item= Fc1ccc(-c2csc(N3N=C(c4ccc(N5CCOCC5)cc4)CC3c3ccc(Cl)cc3)n2)cc1 (stereo not drawn)
5.01

GET /values?readout=pIC50&system=Insulin receptor (Homo sapiens)&item= N#Cc1ccc(-c2csc(N3N=C(c4ccc(N5CCCCC5)cc4)CC3c3ccc(Cl)cc3)n2)cc1 (stereo not drawn)
< 4.52

GET /values?readout=pIC50&system=Insulin receptor (Homo sapiens)&item= N#Cc1ccc(-c2csc(N3N=C(c4ccc(N5CCOCC5)cc4)CC3c3ccc(Cl)cc3)n2)cc1 (stereo not drawn)
< 4.52
